Listing of recorded melting point by entry.

Below are worked cases with known answers.
CCOC(=O)C(Cc1ccccc1CCCBr)(NC(C)=O)C(=O)OCC = 73 to 74.5 °C
O=C(NCCCN1CC=C(c2ccc(Cl)cc2)CC1)C(F)(F)F = 105 to 107 °C

# next compound below
Query (compound): CN(CCC(=O)Nc1ccc2[nH]ncc2c1)Cc1ccccc1 ; field requested: melting point 140 to 141 °C

###

The molecules listed here are annotated with their melting point.

Solved entries (count: 4):
CC(Cc1ccc(F)cc1)(NC(=O)CN)c1ccc(F)cc1 (stereo not given) = 130 to 131 °C
O=C(CCCSc1nc[nH]n1)NC/C=C\COc1cc(CN2CCCCC2)ccn1 = 87 to 89 °C
CCOC(=O)c1ccc(-c2nc(COc3ccc(C=O)cc3OC)c(C)o2)s1 = 155 to 156 °C
c1cn2nc(SCCOC3CCCCO3)ccc2n1 (stereo not given) = 60 to 62 °C

Turning to the following molecule.
Field request: melting point | item: CC1SC(=O)NN=C1c1ccc2c(c1)C(C)(C)CC(=O)N2 (stereo not given) 288 °C

The origin of these recorded values is a melting point compilation (Tetko et al.; mined from patent text by program, amines drawn as free bases though some values may be those of a salt).
